biological target: SMARCA2-HiBiT HeLa cells (protein which is expressed from the SMARCA2 gene) (Homo sapiens, UniProt P51531); construct: protein which is expressed from the SMARCA2 and SMARCA4 genes; host or cells: HeLa (SMARCA2-HiBiT engineered line); test: SMARCA2 degradation assay (HiBiT-fusion HeLa cell line, 24 h, luminescence); format: cell-based; conditions: @ 1 μM
Sequence (P51531 whole entry, the tested form may be a part): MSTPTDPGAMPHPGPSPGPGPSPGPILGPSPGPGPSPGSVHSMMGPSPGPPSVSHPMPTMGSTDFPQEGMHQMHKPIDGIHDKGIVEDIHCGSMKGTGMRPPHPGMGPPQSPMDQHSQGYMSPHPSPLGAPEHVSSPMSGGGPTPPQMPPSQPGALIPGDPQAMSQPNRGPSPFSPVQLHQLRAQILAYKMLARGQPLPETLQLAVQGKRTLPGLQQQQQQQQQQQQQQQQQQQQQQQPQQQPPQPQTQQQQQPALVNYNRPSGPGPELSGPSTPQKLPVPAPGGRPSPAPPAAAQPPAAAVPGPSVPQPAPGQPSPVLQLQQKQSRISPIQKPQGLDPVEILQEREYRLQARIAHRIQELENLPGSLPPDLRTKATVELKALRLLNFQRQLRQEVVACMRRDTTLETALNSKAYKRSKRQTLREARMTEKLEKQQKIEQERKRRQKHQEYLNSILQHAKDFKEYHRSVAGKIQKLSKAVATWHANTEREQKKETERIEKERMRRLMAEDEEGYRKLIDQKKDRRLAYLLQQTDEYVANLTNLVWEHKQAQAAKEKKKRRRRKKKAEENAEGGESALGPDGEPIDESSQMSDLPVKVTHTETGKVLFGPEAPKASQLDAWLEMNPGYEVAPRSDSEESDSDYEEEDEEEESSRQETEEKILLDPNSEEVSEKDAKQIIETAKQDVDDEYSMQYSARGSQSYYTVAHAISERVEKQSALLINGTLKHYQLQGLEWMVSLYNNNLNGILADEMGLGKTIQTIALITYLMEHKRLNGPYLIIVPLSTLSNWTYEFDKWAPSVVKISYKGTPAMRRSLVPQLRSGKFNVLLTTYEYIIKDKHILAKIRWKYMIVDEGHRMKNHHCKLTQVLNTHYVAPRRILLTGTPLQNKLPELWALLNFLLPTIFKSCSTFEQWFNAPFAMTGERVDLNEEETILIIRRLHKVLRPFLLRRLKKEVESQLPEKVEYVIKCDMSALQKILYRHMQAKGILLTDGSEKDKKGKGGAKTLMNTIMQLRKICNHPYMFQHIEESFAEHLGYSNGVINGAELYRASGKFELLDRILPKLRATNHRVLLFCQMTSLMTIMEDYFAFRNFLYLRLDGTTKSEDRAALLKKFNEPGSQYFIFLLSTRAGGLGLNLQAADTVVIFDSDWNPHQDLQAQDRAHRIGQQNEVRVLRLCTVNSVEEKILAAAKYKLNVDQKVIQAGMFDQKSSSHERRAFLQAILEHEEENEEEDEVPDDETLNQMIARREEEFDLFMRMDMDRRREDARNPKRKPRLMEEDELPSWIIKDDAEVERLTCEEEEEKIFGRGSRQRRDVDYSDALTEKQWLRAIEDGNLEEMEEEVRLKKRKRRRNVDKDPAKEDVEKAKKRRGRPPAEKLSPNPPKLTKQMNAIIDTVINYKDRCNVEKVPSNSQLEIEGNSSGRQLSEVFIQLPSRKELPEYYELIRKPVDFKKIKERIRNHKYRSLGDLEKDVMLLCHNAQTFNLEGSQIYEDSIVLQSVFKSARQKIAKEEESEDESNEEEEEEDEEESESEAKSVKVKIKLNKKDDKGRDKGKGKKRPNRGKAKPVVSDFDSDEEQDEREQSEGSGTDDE
measurement.label: SMARCA2 % Degradation @ 1 μM

1) C[C@@H]1CCN(c2cc(-c3ccccc3O)nnc2N)CCN1c1ccnc(C#CCN2CC3CC2(C)C3)n1 [Compound P-190] ... +++ (+++=>70%)
2) CN(C)CC#Cc1nccc(N2C3CC2CN(c2cc(-c4ccccc4O)nnc2N)C3)n1 [Compound P-206] ... +++ (+++=>70%)
3) Nc1nnc(-c2ccccc2O)cc1N1CCN(c2ccnc(C#CCNC(=O)c3cnn4cccnc34)n2)CC1 [Compound P-71] ... ++ (++=30-70%)
4) C[C@@H]1CCN(c2cc(-c3ccccc3O)nnc2N)CCN1c1nc(C#CCn2cncn2)ncc1F [Compound P-214] ... ++ (++=30-70%)
5) Nc1nnc(-c2ccccc2O)cc1N1CC2CCC(C1)N2c1nc(C#CCn2ccnc2)ncc1F [Compound P-224] ... +++ (+++=>70%)
6) Cc1nn2ccn(CC#Cc3nccc(N4CCN(c5cnnc(-c6ccccc6O)c5)CC[C@H]4C)n3)c(=O)c2c1C [Compound P-235] ... + (+=<30%)
7) Nc1nnc(-c2ccccc2O)cc1N1CC2CN(c3ccnc(C#CCNC(=O)c4cc5ncccn5n4)n3)CC21 (centres unmarked) [Compound P-45] ... + (+=<30%)
8) COC/C=C/c1nccc(N2CCCN(c3cc(-c4ccccc4O)nnc3N)CC2)n1 [Compound P-159] ... +++ (+++=>70%)
9) C[C@@H]1CCN(c2cc(-c3ccccc3O)nnc2N)CCN1c1ccnc(C#CCN2CC3CCC(C2)O3)n1 [Compound P-183] ... +++ (+++=>70%)
10) COCC1CN(CC#Cc2nccc(N3CCN(c4cc(-c5ccccc5O)nnc4N)CC[C@H]3C)n2)CCO1 (some centres unmarked) [Compound P-161] ... ++ (++=30-70%)
11) Nc1nnc(-c2ccccc2O)cc1N1CCC2(CCCN(c3ccnc(C#CCNC(=O)c4cc5ncccn5n4)n3)C2)CC1 [Compound P-35] ... ++ (++=30-70%)
12) CC(C)(C)OC(=O)N1CCCC1C#Cc1nccc(N2CCCN(c3cc(-c4ccccc4O)nnc3N)CC2)n1 (centres unmarked) [Compound P-348] ... +++ (+++=>70%)
13) C[C@H]1CN(c2ccnc(C#CCn3cccn3)n2)CCN1c1cc(-c2ccccc2O)nnc1N [Compound P-329] ... ++ (++=30-70%)
14) Nc1nnc(-c2ccccc2O)cc1N1C2CCC1CN(c1ccnc(C#CCN3CC4CC3C4)n1)C2 [Compound P-182] ... ++ (++=30-70%)
15) C[C@@H]1CCC(=O)N1CC#Cc1ncc(F)c(N2CCN(c3cc(-c4ccccc4O)nnc3N)CC[C@H]2C)n1 [Compound P-175] ... ++ (++=30-70%)
16) CC1(F)CCN(CC#Cc2nccc(N3C4CCC3CN(c3cc(-c5ccccc5O)nnc3N)C4)n2)C1 (centres unmarked) [Compound P-194] ... ++ (++=30-70%)
17) C[C@@H]1CCN(c2cc(-c3ccccc3O)nnc2N)CCN1c1ccnc(C#CCN(C)C)n1 [Compound P-345] ... ++ (++=30-70%)
18) Cc1cc(C)n2ncc(C(=O)NCC#Cc3nccc(N4CCN(c5cc(-c6ccccc6O)nnc5N)CC4)n3)c2n1 [Compound P-70] ... ++ (++=30-70%)
19) C[C@@H]1CCN(c2cc(-c3ccccc3O)nnc2N)CCN1c1ccnc(C#CCN2CC(F)(F)[C@H]2C)n1 [Compound P-271] ... ++ (++=30-70%)
20) C[C@@H]1CCN(c2cc(-c3ccccc3O)nnc2N)CCN1c1ccnc(/C=C/CN(C)CCF)n1 [Compound P-164] ... +++ (+++=>70%)
21) Nc1nnc(-c2ccccc2O)cc1N1CCC2(CCN(c3ccnc(C#CCNC(=O)c4cc5ncccn5n4)n3)CC2)C1 [Compound P-34] ... ++ (++=30-70%)
22) Cc1nn2ccn(CC#Cc3nccc(N4CCN(c5cc(-c6ccccc6O)nnc5N)CC4)n3)c(=O)c2c1C [Compound P-281] ... ++ (++=30-70%)
23) Nc1nnc(-c2ccccc2O)cc1N1CCN(c2ccnc(C#CCNC(=O)c3ccncc3)n2)CC1 [Compound P-56] ... ++ (++=30-70%)
24) Nc1nnc(-c2ccccc2O)cc1N1CCN(c2ccnc(C#CCNC(=O)c3cn4ccncc4n3)n2)CC1 [Compound P-60] ... ++ (++=30-70%)
25) Nc1nnc(-c2ccccc2O)cc1N1CCCN(c2ccnc(C#CCN3CC4CCC(C3)O4)n2)CC1 [Compound P-315] ... ++ (++=30-70%)
26) Nc1nnc(-c2ccccc2O)cc1N1C[C@@H]2C[C@H]1CN2c1ccnc(C#CCNC(=O)c2cc3ncccn3n2)n1 [Compound P-30] ... ++ (++=30-70%)
27) CC(=O)NCC#Cc1nccc(N2CCCN(c3cc(-c4ccccc4O)nnc3N)CC2)n1 [Compound P-122] ... ++ (++=30-70%)
28) Nc1nnc(-c2ccccc2O)cc1N1CCCC2(CCN(c3ccnc(C#CCNC(=O)c4cc5ncccn5n4)n3)CC2)C1 [Compound P-33] ... ++ (++=30-70%)
29) Nc1nnc(-c2ccccc2O)cc1N1CCN(c2ccnc(C#CCNC(=O)c3ccn(CC(F)(F)F)n3)n2)CC1 [Compound P-9] ... ++ (++=30-70%)
